meta.source: ChEMBL document CHEMBL1124174

Field: Protection. Provide a value for each of the compounds that follow.
# Test system: Mustela putorius furo
# assay comment: In vivo antagonism of cisplatin-induced emesis in ferret measured as percentage protection for twice the dose of 0.3 mg/kg and in 3 ferrets
# Assay type: functional
Write the answer as a number in %, unit excluded.

Exercise: Using the record for CCN(CC)CCNC(=O)c1cc(Cl)c(N)cc1OC1CCCC[C@@H]1OC (stereo partly drawn) , report its Protection.
Solution: 42

Exercise: Using the record for CCN(CC)CCNC(=O)c1cc(Cl)c(N)cc1OC1CCCCC1=O (stereo not drawn) , report its Protection.
Solution: 62

Exercise: Using the record for "C=CCOc1cc(N)c(Cl)cc1C(=O)NCCN(CC)CC" , report its Protection.
Solution: 30

Exercise: Using the record for CCN(CC)CCNC(=O)c1cc(Cl)c(N)cc1OC[C@@H](C)O (stereo in doubt; 8f) , report its Protection.
Solution: 0

Exercise: Using the record for "CCC(=O)COc1cc(N)c(Cl)cc1C(=O)NCCN(CC)CC" , report its Protection.
Solution: 0

Exercise: Using the record for "CCN(CC)CCNC(=O)c1cc(Cl)c(N)cc1OCC(C)=O" , report its Protection.
Solution: 44

Exercise: Using the record for CCN(CC)CCNC(=O)c1cc(Cl)c(N)cc1OC1CCCC[C@H]1OC (stereo partly drawn) , report its Protection.
Solution: 77

Exercise: Using the record for "CCN(CC)CCNC(=O)c1cc(Cl)c(N)cc1OCC(OC)OC" , report its Protection.
Solution: 0

* * *

# System: Mustela putorius furo
# assay comment: In vivo antagonism of cisplatin-induced emesis in ferret measured as percentage protection for twice the dose of 3 mg/kg and in 3 ferrets
# Type: functional
result type: Protection (%)
Write the answer as a number in %, unit excluded.

Exercise: Identify the measured Protection of "CCN(CC)CCNC(=O)c1cc(Cl)c(N)cc1OCC(=O)OC" for Mustela putorius furo.
Solution: 30

Exercise: Identify the measured Protection of C=CCC(Oc1cc(N)c(Cl)cc1C(=O)NCCN(CC)CC)C(C)=O (centres undefined) for Mustela putorius furo.
Solution: 68

Exercise: Identify the measured Protection of "CCN(CC)CCNC(=O)c1cc(Cl)c(N)cc1OCC(=O)Cc1ccccc1" for Mustela putorius furo.
Solution: 100

Exercise: Identify the measured Protection of CCN(CC)CCNC(=O)c1cc(Cl)c(N)cc1OC1CCCC[C@H]1O (some centres undefined) for Mustela putorius furo.
Solution: 64

* * *

# Test system: Canis familiaris
# assay comment: In vivo antagonism of cisplatin-induced emesis in dog measured as percentage protection for twice the dose of 3 mg/kg in 2 dogs
# Assay type: functional, Canis lupus familiaris
Field: Protection. Provide a value for each of the compounds that follow.
Write the answer as a number in %, unit excluded.

Exercise: Identify the measured Protection of "CCN(CC)CCNC(=O)c1cc(Cl)c(N)cc1OCC(=O)c1ccccc1" for Canis familiaris.
Solution: 88

Exercise: Identify the measured Protection of CCN(CC)CCNC(=O)c1cc(Cl)c(N)cc1OCC1COC(C)(C)O1 (configuration not stated) for Canis familiaris.
Solution: 68

Exercise: Identify the measured Protection of "C=C(C)COc1cc(N)c(Cl)cc1C(=O)NCCN(CC)CC" for Canis familiaris.
Solution: 68

Exercise: Identify the measured Protection of "CCN(CC)CCNC(=O)c1cc(Cl)c(N)cc1OCC#N" for Canis familiaris.
Solution: 63

Exercise: Identify the measured Protection of CCN(CC)CCNC(=O)c1cc(Cl)c(N)cc1OC(C)C#N (configuration not stated) for Canis familiaris.
Solution: 80

Exercise: Identify the measured Protection of "C=CCCOc1cc(N)c(Cl)cc1C(=O)NCCN(CC)CC" for Canis familiaris.
Solution: 71

Exercise: Identify the measured Protection of "C#CCOc1cc(N)c(Cl)cc1C(=O)NCCN(CC)CC" for Canis familiaris.
Solution: 72

* * *

# Test system: Mustela putorius furo
# assay comment: In vivo antagonism of cisplatin-induced emesis in ferret measured as percentage protection for twice the dose of 3 mg/kg and in 3 ferrets
# Assay type: functional
Field: Protection. Provide a value for each of the compounds that follow.
Write the answer as a number in %, unit excluded.

Exercise: Using the record for "CCN(CC)CCNC(=O)c1cc(Cl)c(N)cc1OCC1OCCO1" , report its Protection.
Solution: 67

Exercise: Using the record for "CCN(CC)CCNC(=O)c1cc(Cl)c(N)cc1OC/C(C)=N/OC" , report its Protection.
Solution: 90

Exercise: Using the record for "CCN(CC)CCNC(=O)c1cc(Cl)c(N)cc1OCc1cc(C)no1" , report its Protection.
Solution: 72

Exercise: Using the record for "CCN(CC)CCNC(=O)c1cc(Cl)c(N)cc1OCCO" , report its Protection.
Solution: 68

Exercise: Using the record for "CCN(CC)CCN(C)C(=O)c1cc(Cl)c(N)cc1OC" , report its Protection.
Solution: 0

Exercise: Using the record for CCN(CC)CCNC(=O)c1cc(Cl)c(N)cc1OC1CCCC[C@@H]1OC (some centres undefined) , report its Protection.
Solution: 91

Exercise: Using the record for "CCN1CCCCCOc2cc(N)c(Cl)cc2C(=O)NCCC1" , report its Protection.
Solution: 67

Exercise: Using the record for C=CCN1CCCC1CNC(=O)c1cc2nn[nH]c2cc1OC(C)C(C)=O (centres undefined) , report its Protection.
Solution: 21

Exercise: Using the record for C=CCN1CCCC1CNC(=O)c1cc2nn[nH]c2cc1O (centres undefined) , report its Protection.
Solution: 0

Exercise: Using the record for CCN(CC)CCNC(=O)c1cc(Cl)c(N)cc1OCC(C)O (centres undefined) , report its Protection.
Solution: 86

Exercise: Using the record for "C/C=C/COc1cc(N)c(Cl)cc1C(=O)NCCN(CC)CC" , report its Protection.
Solution: 90

Exercise: Using the record for "CCCOc1cc(N)c(Cl)cc1C(=O)NCCN(CC)CC" , report its Protection.
Solution: 70

Exercise: Using the record for "CCN(CC)CCNC(=O)c1cc(Cl)c(N)cc1OCC(OC)OC" , report its Protection.
Solution: 82

Exercise: Using the record for "CCN(CC)CCNC(=O)c1cc(Cl)c(N)cc1OCC#N" , report its Protection.
Solution: 90

Exercise: Using the record for "C#CCOc1cc(N)c(Cl)cc1C(=O)NCCN(CC)CC" , report its Protection.
Solution: 50

Exercise: Using the record for CCN(CC)CCNC(=O)c1cc(Cl)c(N)cc1OC1CCCC[C@@H]1O (some centres undefined) , report its Protection.
Solution: 60

Exercise: Using the record for "CCN(CC)CCNC(=O)c1cc(Cl)c(N)cc1OCC1=NCCN1" , report its Protection.
Solution: 86

Exercise: Using the record for "CCN(CC)CCNC(=O)c1cc(Cl)c(N)cc1OCC(=O)c1ccccc1" , report its Protection.
Solution: 100

Exercise: Using the record for CCN(CC)CCC[S+]([O-])c1cc(Cl)c(N)cc1OC (centres undefined) , report its Protection.
Solution: 70

Exercise: Using the record for "CCN(CC)CCNC(=O)c1cc(Cl)c(N)cc1OCCOCCOC" , report its Protection.
Solution: 76

Exercise: Using the record for C=CCN1CCCC1CNC(=O)c1cc2nn[nH]c2cc1OC (centres undefined) [ALIZAPRIDE] , report its Protection.
Solution: 27

Exercise: Using the record for "C=CCCOc1cc(N)c(Cl)cc1C(=O)NCCN(CC)CC" , report its Protection.
Solution: 50

Exercise: Using the record for "CCN(CC)CCN(C)C(=O)c1cc(Cl)c(N)cc1O.Cl" , report its Protection.
Solution: 30

Exercise: Using the record for CCN(CC)CCNC(=O)c1cc(Cl)c(N)cc1OC1CCCCC1=O (centres undefined) , report its Protection.
Solution: 100

* * *

# target of assay: D(2) dopamine receptor (Rattus norvegicus)
# assay comment: In vivo antagonistic activity against dopamine D2 receptor was measured as catalepsy in rat when administered subcutaneously
# Format: functional, organism-based
result type: ED50

Exercise: Using the record for "CCN(CC)CCN(C)C(=O)c1cc(Cl)c(N)cc1O.Cl" , report its ED50.
Solution: > 40 mg/kg

Exercise: Using the record for "C=CCOc1cc(N)c(Cl)cc1C(=O)NCCN(CC)CC" , report its ED50.
Solution: > 40 mg/kg

Exercise: Using the record for CCC(=O)C(C)Oc1cc(N)c(Cl)cc1C(=O)NCCN(CC)CC (stereo unspecified) , report its ED50.
Solution: > 40 mg/kg

Exercise: Using the record for CCN(CC)CCNC(=O)c1cc(Cl)c(N)cc1OCC1COC(C)(C)O1 (stereo unspecified) , report its ED50.
Solution: > 40 mg/kg

Exercise: Using the record for C=CCN1CCCC1CNC(=O)c1cc2nn[nH]c2cc1O (stereo unspecified) , report its ED50.
Solution: > 40 mg/kg

Exercise: Using the record for CCN(CC)CCNC(=O)c1cc(Cl)c(N)cc1OC [METOCLOPRAMIDE] , report its ED50.
Solution: 26 mg/kg
